SYSTEM: T1, human ferroportin (SLC40A1) fused with GFP, stably expressed in HEK293 cells (human, UniProt Q9NP59 1-571)
T1 sequence (looked up): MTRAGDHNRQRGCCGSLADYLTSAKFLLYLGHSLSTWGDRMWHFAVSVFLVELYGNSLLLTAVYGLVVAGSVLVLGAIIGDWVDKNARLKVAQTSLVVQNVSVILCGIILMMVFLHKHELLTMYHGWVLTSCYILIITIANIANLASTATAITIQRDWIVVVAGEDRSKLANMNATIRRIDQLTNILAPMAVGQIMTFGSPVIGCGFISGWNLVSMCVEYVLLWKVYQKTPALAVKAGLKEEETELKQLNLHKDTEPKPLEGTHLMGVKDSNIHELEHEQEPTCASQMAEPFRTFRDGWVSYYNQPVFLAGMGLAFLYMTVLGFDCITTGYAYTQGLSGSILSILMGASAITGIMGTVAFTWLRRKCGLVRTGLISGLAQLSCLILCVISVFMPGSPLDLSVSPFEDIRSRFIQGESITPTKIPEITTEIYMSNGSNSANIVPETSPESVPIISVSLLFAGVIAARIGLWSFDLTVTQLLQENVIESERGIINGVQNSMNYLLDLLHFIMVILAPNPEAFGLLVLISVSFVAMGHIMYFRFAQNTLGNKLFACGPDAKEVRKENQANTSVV
ASSAY DETAILS: cell-based or functional assay
Starred links: 1 amine or outer side, 2 acyl side, 3 side chain; linkers in the order of their positions; H or OH if unused. Positions of bridges follow the written chain, without caps; N, C: chain ends. Non-standard residues stand in square brackets, D forms with d. Groups on a side chain read outwards from the residue. Primed or numbered codes have the meaning given here. *: point of attachment. PEG12 = NCCOCCOCCOCCOCCOCCOCCOCCOCCOCCOCCOCCOCCC(=O)O; Dip = N[C@H](C(=O)O)C(c1ccccc1)c1ccccc1; γGlu = O=C(O)[C@H](CCC(=O)[*:2])N[*:1]; Palmitoyl = CCCCCCCCCCCCCCCC(=O)*; β3hF = N[C@H](CC(=O)O)Cc1ccccc1; Isovaleryl = CC(C)CC(=O)*; hSer = N[C@@H](CCO)C(=O)O; PEG2′ = not defined here; Dap = NC[C@H](N)C(=O)O
Consider the cut-off 9 nM. If the recorded FPN IC50 is strictly smaller, the label is MET; if not, the label is NOT MET.

Please review the entries below; each comes with its answer.
Isovaleryl-DTHFPCI[hSer]FK([PEG12-Palmitoyl])C-NH2 (disulfide 6-11 (inferred)) [Compd ID 12] : MET
DTHXPCIKXKKC (Isovaleric acid-DTH-[Dpa]-PCI-[(D)Lys]-[b-hPhe]-[Lys(Peg11-Lauryl)]-[(D)Lys]-C-NH2) [Compd ID 156] : NOT MET

Lab note: FPN IC50 threshold 9 nM. Does this binder come in strictly under it? DTHXPCIKXKKC (Isovaleric acid-DTH-[Dpa]-PCI-[(D)Lys]-[b-hPhe]-[Lys-Peg11*]-[(D)Lys]-C-NH2 (*PEG11-OMe)) [Compd ID 157]
NOT MET

Proceed to DTHFPCIKFKC (Isovaleric acid-DTHFPCIKF-Lys[PEG11-Palm]-C-NH2) [Compd ID 8]
MET

Proceed to Isovaleryl-DTHFPCI[dK]FK([γGlu-PEG2′-Palmitoyl])C-NH2 (disulfide 6-11 (inferred)) [Compd ID 28]
NOT MET

Proceed to Isovaleryl-DTH[Dip]PCII[β3hF]K([PEG12-Palmitoyl])[dK]C-NH2 (disulfide 6-12 (inferred)) [Compd ID 147]
NOT MET

Proceed to DTHFPCIKXKKC (Isovaleric acid-DTHFPCI-[(D)Lys]-[Dpa]-Lys[PEG11-Palm]-K-[Cys]-NH2) [Compd ID 100]
NOT MET

Proceed to Isovaleryl-DTH[Dip]PCI[dK][β3hF][Dap]([Dap-Palmitoyl])C-NH2 (disulfide 6-11 (inferred)) [Compd ID 162]
MET

Origin of measurements: patent US20200361992A1
